molecular target: Pim-1 kinase (Homo sapiens); test: Promega Kinase-Glo Pim-1 kinase inhibition assay; type: biochemical; details: Table X; Kinase-Glo; read-out: IC50 on Pim1
Sequence (P11309 whole entry): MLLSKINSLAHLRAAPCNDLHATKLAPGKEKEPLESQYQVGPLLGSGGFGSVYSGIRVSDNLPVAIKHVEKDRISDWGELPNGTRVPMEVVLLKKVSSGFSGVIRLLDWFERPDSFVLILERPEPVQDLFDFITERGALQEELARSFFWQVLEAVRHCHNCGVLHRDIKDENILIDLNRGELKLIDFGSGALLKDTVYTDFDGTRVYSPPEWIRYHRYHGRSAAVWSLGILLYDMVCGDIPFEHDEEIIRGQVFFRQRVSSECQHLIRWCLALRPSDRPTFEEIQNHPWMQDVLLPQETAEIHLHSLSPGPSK
Quantity Kind: IC50

Example results:
| Compound | IC50 |
| --- | --- |
| O=C(CN1CCOCC1)N1CCC(CNc2ccc3ncc(-c4cccc(OC(F)(F)F)c4)n3n2)CC1 [Compound 8-21] | 10 to 100 nM |
| C[C@]1(O)CC[C@H](Nc2ccn3ncc(-c4cccc(Cl)c4)c3n2)CC1 [Compound 8-62] | 100 to 1000 nM |

What value of IC50 has been recorded for this entry: O[C@H]1CC[C@H](Oc2ccc3ncc(-c4cccc(OC(F)(F)F)c4)n3n2)CC1 [Compound 8-4]
< 10 nM

Would you mind doing CC(C)(O)[C@H]1CC[C@H](Nc2ccn3ncc(-c4cccc(OC(F)(F)F)c4)c3n2)CC1 [Compound 8-47] as well?
100 to 1000 nM

Repeat for the following compound: FC1(F)CCC(CNc2ccc3ncc(-c4cccc(OC(F)(F)F)c4)n3n2)CC1 [Compound 8-17]
1000 to 5000 nM

###

Each entry below lists one item and its recorded pIC50 value.
biological target: Pim-1 kinase (Homo sapiens); experiment: Promega Kinase-Glo Pim-1 kinase inhibition assay; type: biochemical; details: Table X; Kinase-Glo; read-out: IC50 on Pim1;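 further: in vitro Pim-1 reaction run 2 h at 30 °C, then leftover ATP measured by luciferase luminescence, where signal falls as kinase activity rises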
pIC50: −log10 of the molar value.

Record excerpt, results attached:
| Compound String | Value Reported |
| --- | --- |
| FC(F)(F)Oc1cccc(-c2cnc3ccc(NCCN4CCOCC4)nn23)c1 | 7.00 to 8.00 |
| CC(C)(O)[C@H]1CC[C@H](Nc2ccc3ncc(-c4cccc(OC(F)(F)F)c4)n3n2)CC1 | > 8.00 |

Record `O=S1(=O)CCC(CNc2ccn3ncc(-c4cccc(OC(F)(F)F)c4)c3n2)CC1` : what is its pIC50 with Pim-1 kinase (Homo sapiens)?
6.00 to 7.00
